Hey, just so you know, these numbers are from ChEMBL document CHEMBL1154084.

# Protocol Notes: Ratio of EC90 for Mycobacterium tuberculosis Erdman to MIC for Mycobacterium tuberculosis H37Rv
# Assay type: functional
Use 0.5 as the dividing line for Ratio, with the line itself on the 1.0 side and lower values as 0.0.

• O=C(N/N=C/c1ccc(Cl)c([N+](=O)[O-])c1)c1ccncc1 = 0.0
• NNC(=O)c1ccncc1 = 1.0
• O=C(NN=C1CCCCC1)c1ccncc1 = 1.0
• O=C(N/N=C/c1c(F)cccc1F)c1ccncc1 = 0.0
• O=C(N/N=C/c1cccc(Cl)c1Cl)c1ccncc1 = 0.0

Shifting focus to the molecule that follows.
Query :: Could you verify whether the entry O=C(N/N=C/c1ccc(Cl)c(Cl)c1)c1ccncc1 shows Ratio of no less than 0.5?
Result :: 1.0

----------
This section presents molecules with their documented MIC90 values.
# Tested on: Mycobacterium tuberculosis
# Protocol Notes: Antitubercular activity against Mycobacterium tuberculosis H37Rv by broth dilution method
# Format: functional
Respond with the bare value in µg/mL.

- O=C(NN=C1CCCCC1)c1ccncc1: 0.03
- O=C(N/N=C/c1ccc(Cl)cc1)c1ccncc1: 0.2
- O=C(N/N=C/c1ccc(Cl)c(Cl)c1)c1ccncc1: 0.2
- O=C(N/N=C/c1ccccc1)c1ccncc1 [N'-BENZYLIDENE ISONICOTINOHYDRAZIDE]: 0.05
- O=C(N/N=C/c1ccc(Br)cc1)c1ccncc1: 3.13
- COc1ccccc1/C=C/C=N/NC(=O)c1ccncc1: 0.1

Query :: Need MIC90, item CCCCCCCCCCCC/C=N\NC(=O)c1ccncc1
Result :: 0.2

Query :: Query (molecule): CCC/C(CC(=O)OCC)=N/NC(=O)c1ccncc1 ; field requested: MIC90
Result :: 0.39

Query :: Looking for the measured MIC90 of O=C(N/N=C/c1ccc(Cl)c([N+](=O)[O-])c1)c1ccncc1 , can you help?
Result :: 0.39

Query :: Given CCCCOc1ccc(/C=N/NC(=O)c2ccncc2)cc1 , state its recorded MIC90.
Result :: 0.1

Query :: Entry under review: CCOC(=O)C/C(C)=N\NC(=O)c1ccncc1 . Reported MIC90?
Result :: 0.2

Query :: What measured MIC90 goes with CCCCCCCCCCCCC/C=N\NC(=O)c1ccncc1 ?
Result :: 0.2

Query :: Would you kindly share the measured MIC90 for O=C(N/N=C/c1c(F)cccc1F)c1ccncc1 ?
Result :: 0.1

Query :: Endpoint output: MIC90 of CC/C=C/C=N/NC(=O)c1ccncc1 . Value?
Result :: 0.05

----------
Reported MIC90 by item:
# Test system: Mycobacterium tuberculosis
# Protocol Notes: Antitubercular activity against Mycobacterium tuberculosis H37Rv by broth dilution method
# Assay type: functional
Numbers only; they are read as µg/mL.

Field: example entries. Status: answers known.
• O=C(N/N=C/C=N/NC(=O)c1ccncc1)c1ccncc1 = 0.1
• COc1cc(/C=N/NC(=O)c2ccncc2)cc(I)c1O = 0.39
• O=C(N/N=C/c1ccc(/C=N/NC(=O)c2ccncc2)cc1)c1ccncc1 = 0.05

Query :: Please report the recorded MIC90 for COc1cc(/C=N/NC(=O)c2ccncc2)cc(I)c1OC .
Result :: 0.2

Query :: What does the data say about its MIC90? Entry: CC(/C=N/NC(=O)c1ccncc1)=C\c1ccccc1
Result :: 0.5

Query :: Fill in the blank: the reported MIC90 of CC(C)=CCCC(C)C/C=N/NC(=O)c1ccncc1 (configuration not stated) is ____.
Result :: 0.2

Query :: Return reported MIC90; argument: CCCCC/C(=N\NC(=O)c1ccncc1)c1ccccc1
Result :: 0.39

Query :: Sample O=C(N/N=C/c1cccc(Cl)c1Cl)c1ccncc1 — what was its MIC90?
Result :: 0.78

Query :: MIC90 for O=C(N/N=C/c1ccccc1[N+](=O)[O-])c1ccncc1 ?
Result :: 0.39
